// provenance: ChEMBL document CHEMBL2150989

Would you mind telling me the reported Drug uptake of each entry?
# Tested on: Brain
# PROTOCOL DESCRIPTION: Drug level in rat brain at 240 mg/kg, po administered using compound, Lipoid S100 and pluronic f127 ratio 1:1:1 formulation
# Type: ADME, organism-based
# Parameters: dose 240 mg/kg, route oral
# CONDITION SUMMARY: in vivo
Give bare numbers, in ng/g.

MOLECULE	TARGET OR TEST SYSTEM	U	MEASUREMENT
CC1(C)CC[C@]2(C)CC[C@]3(C)C(=CC[C@@H]4[C@@]5(C)CC[C@@H](O)[C@](C)(C(=O)O)[C@@H]5CC[C@]43C)[C@@H]2C1	Brain	ng/g	2443.9
CC(=O)O[C@@H]1CC[C@@]2(C)[C@@H](CC[C@]3(C)[C@@H]2C(=O)C=C2[C@@H]4[C@@H](C)[C@H](C)CC[C@]4(C)CC[C@]23C)[C@@]1(C)C(=O)O	Brain	ng/g	203.8

We next turn to a different molecule, shown below.
// Drug uptake lookup, molecule = C[C@H]1[C@H](C)CC[C@]2(C)CC[C@]3(C)C(=CC[C@@H]4[C@@]5(C)CC[C@@H](O)[C@](C)(C(=O)O)[C@@H]5CC[C@]43C)[C@H]12 , result: 5908.2

----------
# System: Brain
# PROTOCOL DESCRIPTION: Drug level in rat brain at 240 mg/kg, po
# Type: ADME, organism-based
# Set-up: dose 240 mg/kg, route oral
# CONDITION SUMMARY: in vivo
Outcome label depends on Drug uptake relative to 40 ng/g: at/above gives YES, below gives NO.

Observe how each entry below is paired with its result.
MOLECULE	CATEGORY LABEL
CC(=O)O[C@@H]1CC[C@@]2(C)[C@@H](CC[C@]3(C)[C@@H]2CC=C2[C@@H]4CC(C)(C)CC[C@]4(C)CC[C@]23C)[C@@]1(C)C(=O)O	YES
CC(=O)O[C@@H]1CC[C@@]2(C)[C@@H](CC[C@]3(C)[C@@H]2C(=O)C=C2[C@@H]4[C@@H](C)[C@H](C)CC[C@]4(C)CC[C@]23C)[C@@]1(C)C(=O)O	NO
C[C@H]1[C@H](C)CC[C@]2(C)CC[C@]3(C)C(=CC(=O)[C@@H]4[C@@]5(C)CC[C@@H](O)[C@](C)(C(=O)O)[C@@H]5CC[C@]43C)[C@H]12	NO
CC(=O)O[C@@H]1CC[C@@]2(C)[C@@H](CC[C@]3(C)[C@@H]2CC=C2[C@@H]4[C@@H](C)[C@H](C)CC[C@]4(C)CC[C@]23C)[C@@]1(C)C(=O)O	YES
CC1(C)CC[C@]2(C)CC[C@]3(C)C(=CC[C@@H]4[C@@]5(C)CC[C@@H](O)[C@](C)(C(=O)O)[C@@H]5CC[C@]43C)[C@@H]2C1	YES

Kindly consider the entry below.
Textbook exercise: given the entry C[C@H]1[C@H](C)CC[C@]2(C)CC[C@]3(C)C(=CC[C@@H]4[C@@]5(C)CC[C@@H](O)[C@](C)(C(=O)O)[C@@H]5CC[C@]43C)[C@H]12 , state whether its Drug uptake is greater than or equal to 40 ng/g.
YES

----------
# PROTOCOL DESCRIPTION: Solubility of the compound in fasted state simulated intestinal fluid at compound to Lipoid S100 ratio 1:1 after 3 hrs by HPLC analysis in presence of 3:1 molar ratio of Lipoid S100 to tween 80
# Format: physicochemical
Would you mind telling me the reported solubility at 3 h of each entry?
Give bare numbers, in µg/mL.

MOLECULE	MEASUREMENT
C[C@H]1[C@H](C)CC[C@]2(C)CC[C@]3(C)C(=CC(=O)[C@@H]4[C@@]5(C)CC[C@@H](O)[C@](C)(C(=O)O)[C@@H]5CC[C@]43C)[C@H]12 [11-KETO BOSWELLIC ACID]	164

We next turn to a different molecule, shown below.
// solubility at 3 h lookup, molecule = CC(=O)O[C@@H]1CC[C@@]2(C)[C@@H](CC[C@]3(C)[C@@H]2C(=O)C=C2[C@@H]4[C@@H](C)[C@H](C)CC[C@]4(C)CC[C@]23C)[C@@]1(C)C(=O)O [AKBA] , result: 27.6

----------
Would you mind telling me the reported solubility at 3 h of each entry?
# PROTOCOL DESCRIPTION: Solubility of the compound in fed state simulated intestinal fluid at 5 mg/mL after 3 hrs by HPLC analysis
# Assay type: physicochemical
Answers are plain numbers, in µg/mL.

MOLECULE	solubility at 3 h, µg/mL
CC(=O)O[C@@H]1CC[C@@]2(C)[C@@H](CC[C@]3(C)[C@@H]2C(=O)C=C2[C@@H]4[C@@H](C)[C@H](C)CC[C@]4(C)CC[C@]23C)[C@@]1(C)C(=O)O	13.2

// solubility at 3 h lookup, compound = C[C@H]1[C@H](C)CC[C@]2(C)CC[C@]3(C)C(=CC(=O)[C@@H]4[C@@]5(C)CC[C@@H](O)[C@](C)(C(=O)O)[C@@H]5CC[C@]43C)[C@H]12 , result: 73.1

----------
Would you mind telling me the reported recovery of each entry?
# PROTOCOL DESCRIPTION: Permeability from apical to basolateral side of human Caco2 cells assessed as mass balance at compound to Lipoid S100 ratio 1:1
# Type: ADME, cell-based
# CONDITION SUMMARY: Caco-2, read-out: permeability
One number for each entry, in %.

MOLECULE	U	recovery
C[C@H]1[C@H](C)CC[C@]2(C)CC[C@]3(C)C(=CC(=O)[C@@H]4[C@@]5(C)CC[C@@H](O)[C@](C)(C(=O)O)[C@@H]5CC[C@]43C)[C@H]12	%	93.9

We next turn to a different compound, shown below.
// recovery lookup, compound = CC(=O)O[C@@H]1CC[C@@]2(C)[C@@H](CC[C@]3(C)[C@@H]2C(=O)C=C2[C@@H]4[C@@H](C)[C@H](C)CC[C@]4(C)CC[C@]23C)[C@@]1(C)C(=O)O , result: 88.3

----------
# PROTOCOL DESCRIPTION: Permeability from apical to basolateral side of human Caco2 cells assessed as mass balance at compound to Lipoid S100 ratio 1:3
# Type: ADME, cell-based
# CONDITION SUMMARY: Caco-2, read-out: permeability
Would you mind telling me the reported recovery of each entry?
Hey, just the number and the unit after it is fine.

Okay, here is my list. What is recovery for each of these?
1. C[C@H]1[C@H](C)CC[C@]2(C)CC[C@]3(C)C(=CC(=O)[C@@H]4[C@@]5(C)CC[C@@H](O)[C@](C)(C(=O)O)[C@@H]5CC[C@]43C)[C@H]12 [11-KETO BOSWELLIC ACID]
2. CC(=O)O[C@@H]1CC[C@@]2(C)[C@@H](CC[C@]3(C)[C@@H]2C(=O)C=C2[C@@H]4[C@@H](C)[C@H](C)CC[C@]4(C)CC[C@]23C)[C@@]1(C)C(=O)O [AKBA]

["96%", "96.4%"]

----------
# System: Brain
# PROTOCOL DESCRIPTION: Drug level in rat brain at 240 mg/kg, po administered using compound, Lipoid S100 and pluronic f127 ratio 1:1:1 formulation
# Type: ADME, organism-based
# Parameters: dose 240 mg/kg, route oral
# CONDITION SUMMARY: in vivo
Would you mind telling me the reported Drug uptake of each entry?
Answers are plain numbers, in ng/g.

Past entries and their recorded results:
MOLECULE	Drug uptake [ng/g]
CC(=O)O[C@@H]1CC[C@@]2(C)[C@@H](CC[C@]3(C)[C@@H]2CC=C2[C@@H]4[C@@H](C)[C@H](C)CC[C@]4(C)CC[C@]23C)[C@@]1(C)C(=O)O	156.1
CC(=O)O[C@@H]1CC[C@@]2(C)[C@@H](CC[C@]3(C)[C@@H]2CC=C2[C@@H]4CC(C)(C)CC[C@]4(C)CC[C@]23C)[C@@]1(C)C(=O)O	60.1

We next turn to a different molecule, shown below.
// Drug uptake lookup, molecule = C[C@H]1[C@H](C)CC[C@]2(C)CC[C@]3(C)C(=CC(=O)[C@@H]4[C@@]5(C)CC[C@@H](O)[C@](C)(C(=O)O)[C@@H]5CC[C@]43C)[C@H]12 , result: 13.6

----------
# PROTOCOL DESCRIPTION: Solubility of the compound in modified fasted state simulated intestinal fluid at 5 mg/mL after 3 hrs by HPLC analysis
# Type: physicochemical
METRIC NAME: solubility at 3 h (µg/mL)
Numbers only, in µg/mL.

// solubility at 3 h lookup, compound = C[C@H]1[C@H](C)CC[C@]2(C)CC[C@]3(C)C(=CC(=O)[C@@H]4[C@@]5(C)CC[C@@H](O)[C@](C)(C(=O)O)[C@@H]5CC[C@]43C)[C@H]12 , result: 17
